- System: MDA-MB-435
Hi there, use one of these labels in your reply, thanks! yes (active), no (inactive)

// below: answered compounds
# compound, test-target, group
rows = [
    ("CN(CCCCCl)P(=O)(OCc1ccc([N+](=O)[O-])o1)OCC1OC(n2cc([N+](=O)[O-])c(=O)[nH]c2=O)CC1O (stereo not given)", "MDA-MB-435", "no"),
    ("N#CC1=C(N)OC2=C(CCOc3c2ccc2ccccc32)C1c1ccc(Br)cc1 (stereo not given)", "MDA-MB-435", "no"),
    ("N#Cc1c(N)nc(N2CCOCC2)c(C#N)c1-c1c(Cl)cccc1Cl", "MDA-MB-435", "no"),
    ("COC(=O)c1cc2cc(/C=C3/SC(=S)N(N(C(C)=O)C(C)=O)C3=O)oc2n1Cc1ccccc1", "MDA-MB-435", "no"),
]

Proceed to the following item.
// param item: Cc1c(C(N)=O)sc2nc(C)n(/N=c3\scc(-c4ccccc4)n3Cc3ccccc3)c(=O)c12 ; yields the recorded call no
